Provide the recorded inhibition for the entries that follow.
# measurement_notes: 384-well plate pilot, post-Golgi transport modulator project, inhibition of yeast transport mutant growth (AID 636); also: test concentration not given here
# condition_parameters: absorbance 615 nm, about 18 h, hits give high values
Numbers only, in %.

molecule	inhibition / %
CCOC(=O)C1CCN(C(=O)C2CCN(S(=O)(=O)c3cc(Cl)ccc3Cl)CC2)CC1	-5.07
O=[n+]1c2c(n([O-])c3cc(F)c(N4CCCC4)cc31)CCC2	-2.57
CCOc1ccc2nc(SCC#N)c(C#N)cc2c1	-3.2
O=C(CN1CCN(c2cccc(Cl)c2)CC1)N1CCCC1	-6.75
CCN(CCO)C1CC(=O)N(c2ccccc2C)C1=O (configuration not stated)	-9.46

For each of the items listed, what is its inhibition?
1. O=C(NCc1ccc(F)cc1)C1CCN(C(=O)NCc2ccccc2)CC1
2. CC(C)[C@H](NC(=O)[C@@H]1CSCN1C(=O)OC(C)(C)C)C(=O)NCC1CCC(C(=O)O)CC1 (some centres not stated)

1. -3.38
2. -3.33

Would you mind listing inhibition for each of the following molecules?
1. CCOC(=O)c1c(NCc2ccc3c(c2)OCO3)c2ccccc2[nH]c1=O
2. Cc1ccc(-n2c(Cc3cccn3C)nnc2SCC(=O)NCc2ccc3c(c2)OCO3)cc1
3. O=C(COC(=O)C1CC1)c1c[nH]c2ccccc12
4. CCOC(=O)C1CCN(c2c(N(C)Cc3ccco3)c(=O)c2=O)CC1

1. -8.78
2. -5.07
3. 3.24
4. 0.13

Give measured inhibition for every item shown.
1. Cc1cc(C)n2cc(CSCc3ccco3)nc2n1
2. O=C1CN(C(=O)COC(=O)c2ccccc2NC(=O)c2ccco2)c2ccccc2N1
3. O=C(CCN1CCc2ccccc2C1)Nc1ccc2c(c1)OCO2
4. CCCCOc1ccc(-c2nnc(N)s2)cc1

[-7.16, -5.95, -4.4, 3.33]

Please give inhibition, item by item, for the list that follows.
1. COc1ccc(C2CC(=O)c3c(C)nc(N4CCN(c5ccccc5)CC4)nc3C2)cc1 (configuration not stated)
2. CCOC(=O)N1CCC(N2C(=O)c3ccc(C(=O)NCc4ccco4)cc3C2=O)CC1

1: 0.79; 2: 0
